# Test system: NCI-H211 tumor spheroids, viability percent test/control
# Test Details: Anticancer human tumor NCI-H211 cell line growth inhibition; active = viability on the fitted dose curve at most 10% of control; inactive = the rest;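 note: spheroids exposed to agents for seven days before readout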
# Particulars: second compound 0.00949 µM; first compound 0.316 µM; spheroids with HUVEC and MSC
Outcomes: T (active), F (inactive)

Compound: COc1ccc([C@@H](O)c2cc(-c3ncnc4cc(N5CCOCC5)ccc34)c(F)cc2Cl)nn1 + CC[C@@]1(O)C(=O)OCc2c1cc1n(c2=O)Cc2cc3c(CN(C)C)c(O)ccc3nc2-1
Label Class: F
//
Compound: Cc1cc(C)c(CNC(=O)c2cc(-c3ccc(CN4CCOCC4)cc3)cc3c2cnn3C2CCCC2)c(=O)[nH]1 + CC[C@@]1(O)C(=O)OCc2c1cc1n(c2=O)Cc2cc3c(CN(C)C)c(O)ccc3nc2-1
Label Class: T
//
Compound: [2H]c1nc(C)nc([2H])c1-c1cc(NC[C@@H](C)c2cccc3c(C(=O)NC)ccnc23)ncn1 + CC[C@@]1(O)C(=O)OCc2c1cc1n(c2=O)Cc2cc3c(CN(C)C)c(O)ccc3nc2-1
Label Class: T
